- Tested on: BaF3 cells with engineered EGFR d746-750/T790M
- Measurement Description: 3-Day CellTiter Glo (CTG) cell proliferation assay, BaF3 EGFR d746-750/T790M
- Type: cell-based
- Measurement Setup: Mus musculus; BaF3 EGFR d746-750/T790M cells, 3-day CTG proliferation, 72 hours
Assay Metric: IC50 (nM)
One number for each entry, in nM.

Some compounds with known IC50 results, for comparison:
Compound: CCN(C)c1nn([C@@H](C)CO)c2c1/C=C/c1n[nH]c3c(C)nc(cc13)-c1c(C)nn(C)c1O[C@@H](C)CN(C)C2
System Under Test: BaF3 cells with engineered EGFR d746-750/T790M
IC50 [nM]: 204

Compound: CCOc1nn(CCO)c2c1/C=C/c1n[nH]c3cnc(cc13)-c1c(C)nn(C)c1O[C@@H](C)[C@H]1CCCN1C2
System Under Test: BaF3 cells with engineered EGFR d746-750/T790M
IC50 [nM]: 0.48

Compound: CCOc1nn(CCO)c2c1/C=C/c1n[nH]c3cnc(cc13)-c1c(C)nn(C)c1OC[C@@H](C)N(CC)C2
System Under Test: BaF3 cells with engineered EGFR d746-750/T790M
IC50 [nM]: 1.44

Compound: Cc1nn(CCO)c2c1/C=C/c1n[nH]c3cnc(cc13)-c1c(C)nn(C)c1O[C@@H](C)CN(C)C2
System Under Test: BaF3 cells with engineered EGFR d746-750/T790M
IC50 [nM]: 13.8

Compound: CCOc1nn([C@@H](C)CO)c2c1/C=C/c1n[nH]c3c(C)nc(cc13)-c1c(C)nn(C)c1O[C@@H](C)CNC2
System Under Test: BaF3 cells with engineered EGFR d746-750/T790M
IC50 [nM]: 45.7

Compound: CCOc1nn(CCO)c2c1/C=C/c1n[nH]c3cnc(cc13)-c1c(cnn1C)OCCN(C)C2
System Under Test: BaF3 cells with engineered EGFR d746-750/T790M
IC50 [nM]: 63.9

Compound: CCOc1nn([C@@H](C)CO)c2c1/C=C/c1n[nH]c3cnc(cc13)-c1c(C)nn(C)c1O[C@@H](C)CN(C(C)=O)C2
System Under Test: BaF3 cells with engineered EGFR d746-750/T790M
IC50 [nM]: 396

Compound: Cc1nn(C)c2c1-c1cc3c(n[nH]c3cn1)/C=C/c1c(OCC#N)nn(CCO)c1CN1CCC[C@@H]1C(C)O2 (single isomer, unassigned)
System Under Test: BaF3 cells with engineered EGFR d746-750/T790M
IC50 [nM]: 2.99

For each of the items listed, what is its IC50?
1. CCOc1nn(CCO)c2c1/C=C/c1n[nH]c3cnc(cc13)-c1c(C)nn(C)c1O[C@H](C)CN(CC)C2
2. Cc1nn(C)c2c1-c1cc3c(n[nH]c3cn1)/C=C/c1c(C#N)nn([C@@H](C)CO)c1CN(C)C[C@H](C)O2
3. CCOc1nn(C[C@H](C)O)c2c1/C=C/c1n[nH]c3cnc(cc13)-c1c(C)nn(C)c1O[C@@H](C)CN(C1CC1)C2
4. CCOc1nn([C@@H](C)CO)c2c1/C=C/c1n[nH]c3cnc(cc13)-c1c(C)nn(C)c1OCCN(C)C2
5. CCOc1nn([C@@H](C)CO)c2c1/C=C/c1n[nH]c3cnc(cc13)-c1c(C)nn(C)c1O[C@@H](C)CNC2

## Result
1: 0.34; 2: 17.1; 3: 4; 4: 3.62; 5: 29.7

## Task Find IC50 (BaF3 cells with engineered EGFR d746-750/T790M) for the entry CCOc1nn([C@@H](C)CO)c2c1/C=C/c1n[nH]c3c(C)nc(cc13)-c1c(C)nn(C)c1O[C@H](C)[C@H]1CCCN1C2
## Result 0.57
